# TGI values compiled below
Tested on: OVCAR-5 ovarian
Test: NCI tumour cell line growth inhibition, 48 h

{"columns": ["MOLECULE", "TGI"],
 "data": [
  ["COc1ccc(N2C(=O)C3CC(c4ccc(Br)cc4)c4c([nH]c5ccccc45)C3C2=O)cc1 (stereo not given)", "73.4 µM"]
]}

Consider the molecule shown here: `O=C1c2ccccc2C(=O)N1CCc1ncc(-c2ccccc2)[nH]1` What is its recorded TGI? > 100 µM

Consider the molecule shown here: `CCOC(=O)c1ccc(-n2cnc(-c3ccc([N+](=O)[O-])cc3)c2)cc1` What is its recorded TGI? > 100 µM

Consider the molecule shown here: Cc1ccc(OCC2CO2)c(Br)c1 (stereo not given) What is its recorded TGI? 34.6 µM

Consider the molecule shown here: `CSC(=NC(=O)c1ccccc1Cl)SCCSC(=NC(=O)c1ccccc1Cl)SC` What is its recorded TGI? > 100 µM

Consider the molecule shown here: `CC(C)(C)C1=CC(=N/N=c2\scc(-c3ccccc3)n2-c2ccccc2)C=C(C(C)(C)C)C1=O` What is its recorded TGI? > 100 µM

Consider the molecule shown here: `Cc1nc2c(c(N3CCN(C)CC3)n1)Cc1ccccc1-2` What is its recorded TGI? > 100 µM

Consider the molecule shown here: `O=C(Cc1ccc2ccccc2c1)NCc1ccc(C(=O)NCCc2ccccc2)cc1` What is its recorded TGI? > 100 µM

Consider the molecule shown here: `Cc1ccc(S(=O)(=O)ON2C(=O)c3cccc4cc([N+](=O)[O-])cc(c34)C2=O)cc1` What is its recorded TGI? > 100 µM

Consider the molecule shown here: `COc1cc2nc(Nc3cccc(Cl)c3)nc(N)c2cc1OC` What is its recorded TGI? 35.4 µM

----------
Tested on: SF-268 CNS
Test: NCI tumour cell line growth inhibition, 48 h; in the data active = GI50 below about 0.43 µM; inactive = the rest
// allowed return values: label 1 for active, label 0 for inactive

Before answering, review these 5 worked examples.
{"columns": ["COMPOUND", "SYSTEM", "GROUP_LABEL"],
 "data": [
  ["CCN1CCN(CCNc2nccc(-c3c(-c4ccc(F)c(O)c4)nc4occn34)n2)S1(=O)=O", "SF-268 CNS", "label 0"],
  ["CCN(CC)CCN(CC)CC.CCN(CC)CCN(CC)CC.[Cu+2].[Cu+2].[O-][Cl+3]([O-])([O-])[O-].[OH3+].[OH3+]", "SF-268 CNS", "label 0"],
  ["CCC1=C(c2ccc(OC)cc2)C(C)(C)Oc2c1ccc(O)c2CN1CCCC1", "SF-268 CNS", "label 0"],
  ["COC(=O)/C=C1/SC(=Nc2cccc(Cl)c2)N(CCc2c[nH]c3ccc(O)cc23)C1=O", "SF-268 CNS", "label 0"],
  ["C(=N\\Nc1ncc(-c2cc3cc4c(cc3o2)OCO4)s1)/c1ccco1", "SF-268 CNS", "label 0"]
]}

Lab log entry: CC1SC(c2ccccc2Cl)N(NC(=O)C(O)c2ccccc2)C1=O (stereo not given) — outcome as called in the assay? label 0

Lab log entry: `CC1(C)N=C(N)N=C(N)N1c1ccc(CNC(=O)Nc2ccc(S(=O)(=O)F)c(Cl)c2)c(Cl)c1` — outcome as called in the assay? label 0

Lab log entry: `COc1ccc2cc(-c3cnc4nonc4n3)ccc2c1` — outcome as called in the assay? label 0

Lab log entry: `C=C(C)[C@@H]1CC[C@]2(CO)CC[C@]3(C)[C@H](CC[C@@H]4[C@@]5(C)CCCNC(C)(C)[C@@H]5CC[C@]43C)[C@@H]12` — outcome as called in the assay? label 0

Lab log entry: Cc1ccc2c(C(C[N+](=O)[O-])c3ccccc3)c(-c3ccccc3)[nH]c2c1 (stereo not given) — outcome as called in the assay? label 0

Lab log entry: CSc1ccc(C2=NN(C(C)=O)C(c3ccc(-c4cc(Cl)c(Cl)cc4Cl)o3)C2)cc1 (stereo not given) — outcome as called in the assay? label 0

Lab log entry: `COc1ccc2c(c1)c(-c1nc(-c3cn(C)c4ccncc34)cs1)cn2C` — outcome as called in the assay? label 0

Lab log entry: `Fc1cccc(COc2ccc(Nc3ncnc4onc(-c5ccccc5)c34)cc2)c1` — outcome as called in the assay? label 1

Lab log entry: CN1C(=O)CCC(N2C(=O)c3cccc(NCCOCCOCCNC(=O)c4cc5c(o4)C(=O)c4ccccc4C5=O)c3C2=O)C1=O (stereo not given) — outcome as called in the assay? label 0

Lab log entry: `COc1ccc(-c2ncnc3c2ncn3CC#CCCl)cc1` — outcome as called in the assay? label 0
